- tgt: S. aureus SPase (Staphylococcus aureus, UniProt P0A070)
- Construct: Full length His-tagged E. coli and S. aureus SPase proteins were expressed in E. coli BL21; His tag; made in house; host or cells: E. coli BL21 (DE3)
- test_summary: SPase enzyme inhibition assay, fluorogenic peptide substrate, S. aureus
- Assay type: biochemical
pIC50: −log10 of the molar value.

# compound, pIC50
data = [
    ("CCCCc1ccc(-c2ccc(C(=O)NC[C@@H](C)C(=O)N[C@@H](CCCCN)C(=O)N(C)[C@@H]3C(=O)N[C@@H](C)C(=O)N[C@H](C(=O)N[C@@H](C)C(=O)N4CCC[C@H]4C(N)=O)Cc4ccc(O)c(c4)-c4cc3ccc4O)cc2)cc1 [Compound 138]", 7.11),
    ("C[C@@H]1NC(=O)[C@@H](N(C)C(=O)[C@H](CCN)NC(=O)c2ccc(-c3ccc(Cl)cc3)cc2)c2ccc(O)c(c2)-c2cc(ccc2O)C[C@@H](C(=O)O)NC1=O [Compound 128]", 5.46),
]

---

Overview of recorded log10(IC50) for various molecules
- tgt: E. coli SPase (Escherichia coli)
- Construct: Full length His-tagged E. coli and S. aureus SPase proteins were expressed in E. coli BL21; His tag; made in house; host or cells: E. coli BL21 (DE3)
- Sequence (P00803 whole entry): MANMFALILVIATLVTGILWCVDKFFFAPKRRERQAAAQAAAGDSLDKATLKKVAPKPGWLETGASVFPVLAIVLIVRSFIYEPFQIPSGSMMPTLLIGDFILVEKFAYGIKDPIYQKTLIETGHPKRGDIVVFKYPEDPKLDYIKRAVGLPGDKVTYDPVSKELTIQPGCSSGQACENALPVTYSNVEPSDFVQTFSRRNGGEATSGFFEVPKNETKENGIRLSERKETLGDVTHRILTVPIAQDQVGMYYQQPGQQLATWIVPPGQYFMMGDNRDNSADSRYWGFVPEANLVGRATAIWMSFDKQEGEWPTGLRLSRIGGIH
- test_summary: SPase enzyme inhibition assay, fluorogenic peptide substrate, E. coli
- Type: biochemical
- reported_conditions: 3 nM E. coli SPase, 20 μM substrate, 10 minutes pre-incubation, room temperature; read-out: IC 50 (nM) E. coli
- Description: Briefly, for expression of E. coli SPase, saturated overnight cultures grown in 20 ml of Luria-Bertani medium supplemented with ampicillin were subcultures into 1.5 L of Luria-Bertani, and shaken at 37° C. until an optical density at 600 nm of 0.4-0.5 was achieved. […] S. aureus SPase was expressed and purified similarly, with the following exceptions. […] All protein concentrations were determined by BCA assay. […]
observed_property: log10(IC50) (log10 of the value in nM)

# molecule, obs_value
measured = [
    ("CCCCc1ccc(-c2ccc(C(=O)N[C@@H](CCCCN)C(=O)NCCC(=O)N(C)[C@@H]3C(=O)N[C@@H](C)C(=O)N[C@H](C(=O)O)Cc4ccc(O)c(c4)-c4cc3ccc4O)cc2)cc1 [Compound 117]", 2.88),
    ("CCCCc1ccc(-c2ccc(C(=O)N[C@@H](C)CC(=O)N[C@@H](CCCCN)C(=O)N(C)[C@@H]3C(=O)N[C@@H](C)C(=O)N[C@H](C(=O)O)Cc4ccc(O)c(c4)-c4cc3ccc4O)cc2)cc1 [Compound 107]", -0.22),
    ("CCCCc1ccc(-c2ccc(C(=O)N[C@@H](CCCCN)C(=O)N[C@H]3COCCCCC[C@@H](C(=O)N[C@@H](C)B4OC5C[C@@H]6C[C@@H](C6(C)C)[C@]5(C)O4)NC(=O)[C@H](C)NC3=O)cc2)cc1 (stereo partly drawn) [Compound 204]", 1.40),
    ("CCCCc1ccc(-c2ccc(C(=O)NC(C)CC(=O)N[C@@H](CCCCN)C(=O)N(C)[C@@H]3C(=O)N[C@@H](C)C(=O)N[C@H](C(=O)O)Cc4ccc(O)c(c4)-c4cc3ccc4O)cc2)cc1 (stereo partly drawn) [Compound 106]", 0.46),
    ("CCCCc1ccc(-c2ccc(C(=O)NC[C@@H](C)C(=O)N[C@@H](CCCCN)C(=O)N(C)[C@@H]3C(=O)N[C@@H](C)C(=O)N[C@H](C(=O)N[C@@H](C)C(=O)N4CCC[C@H]4C(N)=O)Cc4ccc(O)c(c4)-c4cc3ccc4O)cc2)cc1 [Compound 138]", 1.48),
    ("C[C@@H]1NC(=O)[C@@H](N(C)C(=O)[C@H](CCN)NC(=O)c2ccc(-c3ccc(Cl)cc3)cc2)c2ccc(O)c(c2)-c2cc(ccc2O)C[C@@H](C(=O)O)NC1=O [Compound 128]", 0.18),
    ("CCCCCCCCCCCCCC(=O)NCCC(=O)N[C@@H](CCCCN)C(=O)N(C)[C@@H]1C(=O)N[C@@H](C)C(=O)N[C@H](C(=O)O)Cc2ccc(O)c(c2)-c2cc1ccc2O [Compound 105]", 0.11),
    ("CCCCc1ccc(-c2ccc(C(=O)N[C@@H](CCCCN)C(=O)N(C)[C@@H]3C(=O)N[C@@H](C)C(=O)N[C@H](C(=O)O)Cc4ccc(O)c(c4)-c4cc3ccc4O)cc2)cc1 [Compound 110]", 0.15),
    ("C[C@@H]1NC(=O)[C@@H](N(C)C(=O)[C@H](CCCCN)NC(=O)c2ccc(-c3ccc(Cl)cc3)cc2)c2ccc(O)c(c2)-c2cc(ccc2O)C[C@@H](C(=O)N[C@@H](C)C(=O)N(C)C)NC1=O [Compound 137]", 2.54),
]

---

Overview of recorded IC50 for various compounds
- tgt: E. coli SPase (Escherichia coli)
- Construct: Full length His-tagged E. coli and S. aureus SPase proteins were expressed in E. coli BL21; His tag; made in house; host or cells: E. coli BL21 (DE3)
- test_summary: SPase enzyme inhibition assay, fluorogenic peptide substrate, E. coli
- Type: biochemical
- reported_conditions: 3 nM E. coli SPase, 20 μM substrate, 10 minutes pre-incubation, room temperature; read-out: IC 50 (nM) E. coli
- Method: Briefly, for expression of E. coli SPase, saturated overnight cultures grown in 20 ml of Luria-Bertani medium supplemented with ampicillin were subcultures into 1.5 L of Luria-Bertani, and shaken at 37° C. until an optical density at 600 nm of 0.4-0.5 was achieved. […] S. aureus SPase was expressed and purified similarly, with the following exceptions. […] All protein concentrations were determined by BCA assay. […]
Positions of bridges follow the written chain, without caps; N, C: chain ends. Non-standard residues stand in square brackets, D forms with d. Residues, ends and D or L forms follow the SMILES beside them. *: point of attachment. boroAla((+)-pinanediol) = C[C@H](N*)B1O[C@@H]2C[C@@H]3C[C@@H](C3(C)C)[C@]2(C)O1; Biphenylcarbonyl(4'-Bu) = CCCCc1ccc(-c2ccc(C(=O)*)cc2)cc1; Orn = NCCC[C@H](N)C(=O)O

# compound, IC50
data = [
    ("CCCCCCCCCCCCCC(=O)N[C@@H](CCCCN)C(=O)N(C)[C@@H]1C(=O)N[C@@H](C)C(=O)N[C@H](C(=O)NCB(O)O)Cc2ccc(O)c(c2)-c2cc1ccc2O [Compound 118]", "7.6 nM"),
    ("CCCCc1ccc(-c2ccc(C(=O)N[C@@H](CCCCN)C(=O)N[C@H]3CCC(=O)NCCC[C@@H](C(=O)N[C@@H](C)B4O[C@@H]5C[C@@H]6C[C@@H](C6(C)C)[C@]5(C)O4)NC(=O)[C@H](C)NC3=O)cc2)cc1 [Compound 202] ({Biphenylcarbonyl(4'-Bu)}-KEA[Orn]-{boroAla((+)-pinanediol)}; lactam 2-4)", "28 nM"),
    ("CCCCc1ccc(-c2ccc(C(=O)NCC(C)C(=O)N[C@@H](CCN)C(=O)N(C)[C@@H]3C(=O)N[C@@H](C)C(=O)N[C@H](C(=O)O)Cc4ccc(O)c(c4)-c4cc3ccc4O)cc2)cc1 (single isomer, unassigned) [Compound 114]", "730 nM"),
    ("CCCCCCCC(=O)N[C@@H](CCCCN)C(=O)N(C)[C@@H]1C(=O)N[C@@H](C)C(=O)N[C@H](C(=O)O)Cc2ccc(O)c(c2)-c2cc1ccc2O [Compound 124]", "23 nM"),
    ("C[C@@H]1NC(=O)[C@@H](N(C)C(=O)[C@H](CCCCN)NC(=O)c2ccc(-c3ccc(Cl)cc3)cc2)c2ccc(O)c(c2)-c2cc(ccc2O)C[C@@H](C(=O)N[C@@H](C)C=O)NC1=O [Compound 134]", "0.8 nM"),
    ("CCCCc1ccc(-c2ccc(C(=O)N[C@@H](CCCCN)C(=O)N(C)[C@@H]3C(=O)N[C@@H](C)C(=O)N[C@H](C(=O)N[C@@H](C)B4O[C@@H]5C[C@@H]6C[C@@H](C6(C)C)[C@]5(C)O4)Cc4ccc(O)c(c4)-c4cc3ccc4O)cc2)cc1 [Compound 121]", "29 nM"),
    ("CCCCc1ccc(-c2ccc(C(=O)N[C@@H](CCCCN)C(=O)N[C@H]3COCCCCOCC[C@@H](C(=O)N[C@@H](C)B4O[C@@H]5C[C@@H]6C[C@@H](C6(C)C)[C@]5(C)O4)NC(=O)[C@H](C)NC3=O)cc2)cc1 [Compound 207]", "21 nM"),
]

---

- tgt: S. aureus SPase (Staphylococcus aureus, UniProt P0A070)
- Construct: Full length His-tagged E. coli and S. aureus SPase proteins were expressed in E. coli BL21; His tag; made in house; host or cells: E. coli BL21 (DE3)
- Sequence (P0A070 1-191): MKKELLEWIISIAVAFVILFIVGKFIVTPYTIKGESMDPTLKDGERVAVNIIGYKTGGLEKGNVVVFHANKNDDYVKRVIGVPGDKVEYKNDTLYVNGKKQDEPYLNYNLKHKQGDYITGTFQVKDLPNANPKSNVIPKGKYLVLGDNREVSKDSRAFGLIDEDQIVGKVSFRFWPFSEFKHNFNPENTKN
- test_summary: SPase enzyme inhibition assay, fluorogenic peptide substrate, S. aureus
- Assay type: biochemical
Overview of recorded IC50 for various compounds
observed_property: IC50 (nM)

# compound, observed_property, u, obs_value
records = [
    ("CCCCc1ccc(-c2ccc(C(=O)N[C@H](C)C(=O)N[C@@H](CCCCN)C(=O)N(C)[C@@H]3C(=O)N[C@@H](C)C(=O)N[C@H](C(=O)O)Cc4ccc(O)c(c4)-c4cc3ccc4O)cc2)cc1 [Compound 102]", "IC50", "nM", 280),
    ("CCCCCCCCCCCCCC(=O)NCCC(=O)N[C@@H](CCCCN)C(=O)N(C)[C@@H]1C(=O)N[C@@H](C)C(=O)N[C@H](C(=O)O)Cc2ccc(O)c(c2)-c2cc1ccc2O [Compound 105]", "IC50", "nM", 16),
    ("CCCCc1ccc(-c2ccc(C(=O)N[C@@H](CCCCN)C(=O)N(C)[C@@H]3C(=O)N[C@@H](C)C(=O)N[C@H](C(=O)O)Cc4ccc(O)c(c4)-c4cc3ccc4O)cc2)cc1 [Compound 110]", "IC50", "nM", 350),
    ("CCCCc1ccc(-c2ccc(C(=O)N[C@@H](CCCCN)C(=O)NCCC(=O)N(C)[C@@H]3C(=O)N[C@@H](C)C(=O)N[C@H](C(=O)O)Cc4ccc(O)c(c4)-c4cc3ccc4O)cc2)cc1 [Compound 117]", "IC50", "nM", 3900),
    ("CCCCc1ccc(-c2ccc(C(=O)N[C@@H](CCCCN)C(=O)N(C)[C@@H]3C(=O)N[C@@H](C)C(=O)N[C@H](C(=O)N[C@@H](C)B4O[C@@H]5C[C@@H]6C[C@@H](C6(C)C)[C@]5(C)O4)CCCCc4cc3ccc4OC)cc2)cc1 [Compound 209]", "IC50", "nM", 3700),
    ("CCCCCCCC(=O)NCCC(=O)N[C@@H](CCCCN)C(=O)N(C)[C@@H]1C(=O)N[C@@H](C)C(=O)N[C@H](C(=O)N[C@@H](C)C(N)=O)Cc2ccc(O)c(c2)-c2cc1ccc2O [Compound 129]", "IC50", "nM", 140),
    ("CCCCCCCC(=O)NCCC(=O)N[C@@H](CCCCN)C(=O)N(C)[C@@H]1C(=O)N[C@@H](C)C(=O)N[C@H](C(=O)O)Cc2ccc(O)c(c2)-c2cc1ccc2O [Compound 122]", "IC50", "nM", 130),
    ("CCCCc1ccc(-c2ccc(CC(=O)NCCC(=O)N[C@@H](CCCCN)C(=O)N(C)[C@@H]3C(=O)N[C@@H](C)C(=O)N[C@H](C(=O)O)Cc4ccc(O)c(c4)-c4cc3ccc4O)cc2)cc1 [Compound 101]", "IC50", "nM", 30),
    ("CCCCc1ccc(-c2ccc(C(=O)NCC(C)C(=O)N[C@@H](CCCN)C(=O)N(C)[C@@H]3C(=O)N[C@@H](C)C(=O)N[C@H](C(=O)O)Cc4ccc(O)c(c4)-c4cc3ccc4O)cc2)cc1 (stereo partly drawn) [Compound 113]", "IC50", "nM", 69),
]
